Test system: PRKCD
details: concentration: 1 μM, replicates: in singlicate; n = 1;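 further: KINOMEscan kinase panel screen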
valueKind: %Inh

>  <molecule>
CCc1ccc(-c2ccc3c(c2)-c2c(cnn2C)S(=O)(=O)N3C)cc1

>  <%Inh>
0%

$$$$
>  <molecule>
COc1cc(Nc2nccc(N3CCC(NC(=O)c4cc5ccccc5s4)C3)n2)cc(OC)c1OC (centres unmarked)

>  <%Inh>
7%

$$$$
>  <molecule>
COc1cccc(NC(=O)NC2CCN(c3ccnc(Nc4cc(OC)c(OC)c(OC)c4)n3)C2)c1 (centres unmarked)

>  <%Inh>
0%

$$$$

Provide %Inh values for the following items, in order.
1. Cl.c1ccc(-c2ccc3c(Nc4ccc5[nH]ncc5c4)ccnc3c2)nc1
2. O=C(Nc1cccc(-c2nn3ncccc3c2-c2ccnc(Nc3ccccc3)n2)c1)c1c(F)cccc1F
3. Cc1cccc(Nc2nc(N[C@H]3CCNC3)ncc2C(N)=O)c1.Cl
4. COC(=O)Nc1nc2cc(Oc3ccc(NC(=O)Nc4cc(C(F)(F)F)ccc4F)cn3)ccc2[nH]1.Cl.Cl
5. CN(c1ccc(NC(=O)Nc2cc(C(F)(F)F)ccc2F)cc1)c1ccnc(Nc2ccc(S(N)(=O)=O)cc2)n1

RESULT:
["4%", "0%", "58%", "0%", "0%"]

----------
Test system: FYN
details: concentration: 1 μM, replicates: in singlicate; n = 1
Kindly state %Inh for each of the entries shown.
Numbers only, in %.

The following molecules each have a reported value; give each one's %Inh.
1. Cn1cc(-c2[nH]c3cc(NC(=O)[C@H](N)C4CCCCC4)cc4c3c2C=NNC4=O)cn1
2. Nc1n[nH]c2cnc(-c3ccccc3)cc12
3. CC(C)c1nc(-c2cccc(NS(=O)(=O)c3c(F)cccc3F)c2F)c(-c2ccnc(Nc3ccc(N4CCOCC4)nc3)n2)s1
4. C[C@@H](Oc1cc(-n2cnc3cc(-c4ccnc(NCCS(C)(=O)=O)c4)ccc32)sc1C(N)=O)c1ccccc1Cl
5. COc1cc(Nc2nccc(N3CCC(NC(=O)Nc4cccc(C(C)=O)c4)C3)n2)cc(OC)c1OC (stereo not drawn)
6. CN(C)Cc1ccc(-c2ccc3c(Nc4ccc(Oc5ccccn5)cc4)ccnc3c2)o1
7. Cc1ccc(S(=O)(=O)Nc2ccc(Nc3nccc(Nc4cccc5[nH]ncc45)n3)cc2)cc1

RESULT:
[89, 25, 98.2, 14, 40, 71, 41]

----------
Hi there, I'd appreciate the recorded %Inh for every entry that follows.
System: MAP3K1
details: concentration: 1 μM, replicates: in singlicate; n = 1
One number for each entry, in %.

Some compounds with known %Inh results, for comparison:
>  <compound>
CN(C)Cc1ccc(-c2ccc3c(Nc4ccc(Oc5ccccn5)cc4)ccnc3c2)o1 [GW567148]

>  <%Inh, %>
14

$$$$
>  <compound>
FC(F)(F)c1ccc(/C=C/c2cncnc2Nc2ccc3[nH]c(Cc4ccccc4)nc3c2)cc1 [GW709199]

>  <%Inh, %>
0

$$$$
>  <compound>
COC(=O)Nc1nc2ccc(Oc3ccc(NC(=O)Nc4cc(C(F)(F)F)ccc4F)cc3)cc2n1C.Cl [GW692089]

>  <%Inh, %>
2

$$$$
>  <compound>
CN1CCN(Cc2cccc(-c3ccc4c(Nc5ccc(Oc6ccccc6)cc5)ccnc4c3)c2)CC1 [GW578342]

>  <%Inh, %>
0

$$$$
>  <compound>
COCCOCCOc1cc2ncc3c4ccc(C#N)cc4[nH]c3c2cc1OC

>  <%Inh, %>
0

$$$$

I'm hoping you can list %Inh for every compound here, please.
1. COc1ccc(Nc2nccc(N3CCC(NC(=O)Nc4cccc(OC)c4)C3)n2)cc1 (centres unmarked) [GSK1379742]
2. Oc1cc(Nc2ccnc3cc(I)ccc23)ccc1F [GW552771]
3. C[C@@H](Oc1cc(-n2cnc3cc(-c4ccnc(NCCS(C)(=O)=O)c4)ccc32)sc1C(N)=O)c1ccccc1Cl [GSK907232]

RESULT:
[0, 7, 92]

----------
System: MAP3K4
details: concentration: 1 μM, replicates: in singlicate; n = 1
// map %Inh onto a label; ranges low value (below 1%), medium value (1% to below 20%), high value (20% or more)

QUERY: Kindly identify the class of COc1cccc(NC(=O)NC2CCN(c3ccnc(Nc4cc(OC)c(OC)c(OC)c4)n3)C2)c1 (stereo not drawn) .
RESULT: high value

QUERY: Class (by measured %Inh) for COc1cc(Nc2nccc(N3CCC(NC(=O)c4cc5ccccc5s4)C3)n2)cc(OC)c1OC (stereo not drawn)
RESULT: medium value

----------
For each record, write down the corresponding %Inh.
Tested on: ACVR2A
details: concentration: 1 μM, replicates: in singlicate; n = 1
One number for each entry, in %.

Some compounds with known %Inh results, for comparison:
>  <compound>
CC(=O)Nc1nc2cnc(Nc3cc(NC(=O)c4cccc(C5(C#N)CC5)c4Cl)ccc3C)nc2s1

>  <%Inh / %>
0

$$$$
>  <compound>
CCCCc1nn2ncccc2c1-c1ccnc(Nc2ccc(N3CCN(C)CC3)cc2)n1

>  <%Inh / %>
16

$$$$
>  <compound>
CN1CCN(Cc2cccc(-c3ccc4c(Nc5ccc(Oc6ccccc6)cc5)ccnc4c3)c2)CC1

>  <%Inh / %>
0

$$$$
>  <compound>
C[C@@H](Oc1cc(-n2cnc3cc(-c4ccnc(NCCS(C)(=O)=O)c4)ccc32)sc1C(N)=O)c1ccccc1Cl

>  <%Inh / %>
0

$$$$
>  <compound>
Cl.Cl.NCC(NCc1ccc(-c2ccnc3[nH]ccc23)s1)c1ccccc1 (centres unmarked)

>  <%Inh / %>
0

$$$$
>  <compound>
CN(C)S(=O)(=O)c1cc(-c2ccc3nccc(-c4cccc(S(N)(=O)=O)c4)c3c2)cnc1N

>  <%Inh / %>
0

$$$$
>  <compound>
Cn1cc(-c2[nH]c3cc(NC(=O)[C@H](N)C4CCCCC4)cc4c3c2C=NNC4=O)cn1

>  <%Inh / %>
81

$$$$
>  <compound>
COc1cccc(C2=C(Nc3ccc(Cl)c(C(=O)O)c3)C(=O)NC2=O)c1

>  <%Inh / %>
100

$$$$
>  <compound>
CNC(=O)c1ccccc1Nc1nc(Nc2ccc(N3CCOCC3)cc2)ncc1Cl.Cl

>  <%Inh / %>
18

$$$$
>  <compound>
Fc1ccc(-c2ncn(C3CCNCC3)c2-c2ccnc(Oc3ccc(-c4ccccc4)cc3)n2)cc1

>  <%Inh / %>
19

$$$$

For every listed record, write down its %Inh.
1. O=C(Nc1n[nH]c2nc(-c3ccc(O)cc3)ccc12)C1CC1
2. CCc1ccc(-c2ccc3c(c2)-c2c(cnn2C)S(=O)(=O)N3C)cc1

RESULT:
55
5

// each compound listed below needs its %Inh
1. COc1cccc(NC(=O)NC2CCN(c3ccnc(Nc4cc(OC)c(OC)c(OC)c4)n3)C2)c1 (centres unmarked)
2. O=C(Nc1ccccc1F)NC1CCN(c2ccnc(Nc3ccc(F)cc3)n2)CC1
3. COCCOCCOc1cc2ncc3c4ccc(C#N)cc4[nH]c3c2cc1OC
4. O=C(Nc1n[nH]c2cc(-c3ccoc3)ccc12)C1CC1

RESULT:
1: 89; 2: 0; 3: 6; 4: 19

response.value for COc1ccc(-c2coc3ccc(-c4nnc(SCc5ccc(OC)c(C(F)(F)F)c5)o4)cc23)cc1 (field: %Inh) = 0

----------
System: IKK-alpha
Construct: gene CHUK
details: concentration: 1 μM, replicates: in singlicate; n = 1
valueKind: %Inh (%)
Numbers only, in %.

Items follow; give %Inh for each.
1. O=C(Nc1cccc(-c2nn3ccccc3c2-c2ccnc(Nc3cccc(F)c3)n2)c1)c1c(F)ccc(F)c1Cl
2. Cn1cc(-c2[nH]c3cc(NC(=O)[C@H](N)C4CCCCC4)cc4c3c2C=NNC4=O)cn1
3. CN(C)Cc1ccc(-c2ccc3c(Nc4ccc(Oc5ccccn5)cc4)ccnc3c2)o1
4. COc1cccc(C(=O)Nc2cccc(Oc3ccc4nc(NC(=O)C5CC5)cn4n3)c2)c1
5. COC(=O)Nc1nc2ccc(Oc3ccc(NC(=O)Nc4cc(C(F)(F)F)ccc4F)cc3)cc2n1C.Cl
6. CN(c1ccc(NC(=O)Nc2cc(C(F)(F)F)ccc2F)cc1)c1ccnc(Nc2ccc(S(N)(=O)=O)cc2)n1
7. CC(=O)Nc1nc2cnc(Nc3cc(NC(=O)c4cccc(C5(C#N)CC5)c4Cl)ccc3C)nc2s1

RESULT:
1. 0
2. 15
3. 27
4. 0
5. 77
6. 82
7. 7

----------
I'd appreciate it if you could supply %Inh values for the items below.
Tested on: ALK
details: concentration: 1 μM, replicates: in singlicate; n = 1
Answers are plain numbers, in %.

// below: answered compounds
>  <querySmiles>
FC(F)(F)c1ccc(/C=C/c2cncnc2Nc2ccc3[nH]c(Cc4ccccc4)nc3c2)cc1

>  <%Inh [%]>
23

$$$$
>  <querySmiles>
CNC(=O)c1ccccc1Nc1nc(Nc2ccc(N3CCOCC3)cc2)ncc1Cl.Cl

>  <%Inh [%]>
88

$$$$
>  <querySmiles>
CCCCc1nn2ncccc2c1-c1ccnc(Nc2ccc(N3CCN(C)CC3)cc2)n1

>  <%Inh [%]>
72

$$$$
>  <querySmiles>
Cn1cc(-c2[nH]c3cc(NC(=O)[C@H](N)C4CCCCC4)cc4c3c2C=NNC4=O)cn1

>  <%Inh [%]>
91.3

$$$$
>  <querySmiles>
Fc1ccc(-c2ncn(C3CCNCC3)c2-c2ccnc(Oc3ccc(-c4ccccc4)cc3)n2)cc1

>  <%Inh [%]>
39

$$$$

Quick one: give me %Inh for each item below, same order please.
1. Cc1ccc(F)c(C(=O)Nc2cccc(-c3nn4ccccc4c3-c3ccnc(Nc4cccc(F)c4)n3)c2)c1F
2. C[C@@H](Oc1cc(-n2cnc3cc(-c4ccnc(NCCS(C)(=O)=O)c4)ccc32)sc1C(N)=O)c1ccccc1Cl
3. CN(C)S(=O)(=O)c1cc(-c2ccc3nccc(-c4cccc(S(N)(=O)=O)c4)c3c2)cnc1N

RESULT:
[7, 18, 30]
